Please respond with reported inhibition at 1000 µM for every item in the list.
target: Human serum albumin (HSA) glycation by fructose (AGE-HSA) (Homo sapiens); construct: purchased Sigma Aldrich, St. Louis, Mo., USA; assay: In-vitro antiglycation activity against HSA glycation (fluorescence-based antiglycation assay); format: biochemical; details: read-out: Antiglycation Activity % Inhibition
Sequence (P02768 25-609): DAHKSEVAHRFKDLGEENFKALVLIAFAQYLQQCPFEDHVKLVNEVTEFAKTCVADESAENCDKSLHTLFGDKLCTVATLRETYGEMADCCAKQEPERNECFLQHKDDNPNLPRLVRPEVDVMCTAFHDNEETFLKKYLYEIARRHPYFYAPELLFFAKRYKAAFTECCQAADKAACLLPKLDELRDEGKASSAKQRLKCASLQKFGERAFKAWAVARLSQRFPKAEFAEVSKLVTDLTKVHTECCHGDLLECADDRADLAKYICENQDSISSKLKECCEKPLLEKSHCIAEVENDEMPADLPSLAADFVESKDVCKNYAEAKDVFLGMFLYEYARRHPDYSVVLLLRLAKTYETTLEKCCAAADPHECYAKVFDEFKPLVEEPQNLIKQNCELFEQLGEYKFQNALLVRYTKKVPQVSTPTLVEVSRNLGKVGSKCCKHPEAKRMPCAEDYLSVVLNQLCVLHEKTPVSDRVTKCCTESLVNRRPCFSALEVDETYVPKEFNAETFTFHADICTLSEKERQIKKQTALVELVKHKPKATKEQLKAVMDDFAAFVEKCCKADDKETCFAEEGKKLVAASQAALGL
Lab book: enter the figure in %, no units written.

The recorded inhibition at 1000 µM for entry O=C(O)c1ccccc1Nc1ccc(F)cc1F equals 63

Reported inhibition at 1000 µM for O=C(O)c1ccccc1Nc1cc(Cl)ccc1Cl was 62

Briefly, inhibition at 1000 µM measured for Cc1ccc(Cl)cc1Nc1ccccc1C(=O)O : 69

Measured inhibition at 1000 µM, O=C(O)c1ccccc1Nc1cc(Cl)c([N+](=O)[O-])cc1Cl : 88.8

Provenance of the data: patent US9381182B2
